Here the recorded Papp is given for each entry.
system: Caco-2; conditions: Homo sapiens
Description: The compound was evaluated in vitro for the Caco-2 cell permeability.
The reply must contain the numeric value and, after it, the unit.

Worked set:
COc1ccc2ccc(S(=O)(=O)NC(Cc3cc4c(N)nccc4s3)C(=O)N3CCC(C)CC3)cc2c1 (stereo not given)	12.1 ×10⁻⁶ cm/s
COc1ccc2ccc(S(=O)(=O)NC(Cc3cc4c(N)nccc4s3)C(=O)N3CCC(C(C)=O)CC3)cc2c1 (stereo not given)	2.3 ×10⁻⁶ cm/s
CC1CCN(C(=O)C(Cc2cc3c(N)nccc3s2)NS(=O)(=O)c2ccc3ccccc3c2)CC1 (stereo not given)	11.7 ×10⁻⁶ cm/s

Request: Using known records, supply Papp for COc1ccc2ccc(S(=O)(=O)NC(Cc3cc4c(N)nccc4o3)C(=O)N3CCC(C)CC3)cc2c1 (stereo not given)
Response: 0.9 ×10⁻⁶ cm/s

Request: Entry COc1ccc2ccc(S(=O)(=O)NC(Cc3ccc4c(N)nccc4c3)C(=O)N3CCC(C)CC3)cc2c1 (stereo not given) needs its Papp filled in; supply it.
Response: 7.5 ×10⁻⁶ cm/s
